All values here come from ChEMBL document CHEMBL1687925.

Measured IC50 accompanies every entry in the list below.
method: Inhibition of human soluble epoxide […] using fluorescent CMNPC as substrate after 10 mins by fluorometric assay
reported-property: IC50 (nM)

* O=C(NCCCc1ccccc1)[C@@H]1C[C@H]1c1ccccc1 (relative stereo) | 288
* COC(=O)c1ccc(CNC(=O)C23CC4CC(CC(C4)C2)C3)cc1 | 9.1
* O=C(NCCCCc1ccccc1)C12CC3CC(CC(C3)C1)C2 | 180

----------
method: Inhibition of human soluble epoxide […] using fluorescent CMNPC as substrate after 10 mins by fluorometric assay
pIC50: −log10 of the molar value.
Measured pIC50 accompanies every entry in the list below.
reported-property: pIC50

* O=C(O)C1CCC(C(=O)NCCCc2ccccc2)CC1 (stereo not drawn) | < 6.00
* O=C(NCc1ccccc1)C12CC3CC(CC(C3)C1)C2 | < 6.00
* O=C(NCCCc1ccccc1)C1CC1 | < 6.00
